Reference for the values: patent US5872115A

target: ACAT of THP-1 cells (Homo sapiens, UniProt P35610); construct: differentiated into macrophage-like cells by phorbol ester; endogenous in cells; assay: In-vitro test using THP-1 intact cell (ACAT inhibition); conditions: read-out: IC50 THP1 (intact cell)
Sequence (P35610 whole entry): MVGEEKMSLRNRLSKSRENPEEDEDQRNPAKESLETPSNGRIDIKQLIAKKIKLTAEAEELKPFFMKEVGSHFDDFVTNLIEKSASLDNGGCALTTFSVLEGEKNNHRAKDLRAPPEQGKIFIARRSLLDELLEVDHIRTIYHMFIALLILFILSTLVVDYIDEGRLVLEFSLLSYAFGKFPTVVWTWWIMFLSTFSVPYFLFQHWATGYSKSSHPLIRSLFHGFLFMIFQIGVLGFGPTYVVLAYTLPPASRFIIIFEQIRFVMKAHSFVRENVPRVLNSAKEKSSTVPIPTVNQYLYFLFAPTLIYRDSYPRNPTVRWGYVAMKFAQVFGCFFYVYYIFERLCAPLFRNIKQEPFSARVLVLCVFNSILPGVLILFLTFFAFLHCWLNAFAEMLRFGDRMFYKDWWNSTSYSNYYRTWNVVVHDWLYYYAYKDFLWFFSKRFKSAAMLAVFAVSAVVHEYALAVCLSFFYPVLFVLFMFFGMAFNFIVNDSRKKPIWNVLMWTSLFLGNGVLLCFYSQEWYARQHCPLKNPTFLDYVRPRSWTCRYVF
Exercise: state measured log10 IC50 for each of the compounds provided.
Would you kindly interpret these values as log10 of IC50 expressed in nM?

Q: Using the record for `CCCCCNC(=O)Nc1ccccc1C(=O)NCCC1CCN(C(c2ccccc2)c2ccccc2)CC1` , report its log10 IC50.
Result: 2.30

Q: And then `CCCCCCNC(=O)Nc1ccccc1C(=O)NCC1CCN(C(c2ccccc2)c2ccccc2)CC1` , what is it?
Result: 1.95

Q: And then `CCCCCCCNC(=O)Nc1ccccc1C(=O)NCC1CCN(C(c2ccccc2)c2ccccc2)CC1` , what is it?
Result: 1.85

Q: And then `CCCCCNC(=O)Nc1ccccc1C(=O)NCC1CCN(C(c2ccccc2)c2ccccc2)CC1` , what is it?
Result: 2.00

Q: And then `CCCCCCCNC(=O)Nc1ccccc1C(=O)NCCC1CCN(C(c2ccccc2)c2ccccc2)CC1` , what is it?
Result: 2.00

Q: And then `CCCCCCCNC(=O)Nc1ccccc1C(=O)NC1CCN(C(c2ccccc2)c2ccccc2)CC1` , what is it?
Result: 2.90

Q: And then `CCCCCCCNC(=O)Nc1ccc(N(C)C)cc1C(=O)NCC1CCN(C(c2ccccc2)c2ccccc2)CC1` , what is it?
Result: 1.85

Q: And then `CCCCCCCCCCNC(=O)Nc1ccccc1C(=O)NC1CCN(C(c2ccccc2)c2ccccc2)CC1` , what is it?
Result: 2.85

Q: And then `CCCCCCCNC(=O)Nc1ccc(N(C)C)cc1C(=O)NC1CCN(C(c2ccccc2)c2ccccc2)CC1` , what is it?
Result: 2.30

Q: And then `CCCCCCNC(=O)Nc1ccccc1C(=O)NCCC1CCN(C(c2ccccc2)c2ccccc2)CC1` , what is it?
Result: 2.30

Q: And then `CCCCCCCNC(=O)Nc1ccc(O)cc1C(=O)NCCC(c1ccccc1)c1ccccc1` , what is it?
Result: 2.00

Q: And then `CCCCCCCCNC(=O)Nc1ccccc1C(=O)NCC1CCN(C(c2ccccc2)c2ccccc2)CC1` , what is it?
Result: 1.70

Q: And then `CCCCNC(=O)Nc1ccccc1C(=O)NCC1CCN(C(c2ccccc2)c2ccccc2)CC1` , what is it?
Result: 2.00

###

molecular target: THP-1 microsomal ACAT (Homo sapiens); construct: ACAT enzyme fraction was prepared from microsome of human leukemia THP-1 cell; endogenous in cells; host or cells: THP-1 (human leukemia), microsomes; test: In vitro test using THP-1 microsome (ACAT inhibition); format: biochemical; settings: THP-1 microsome; read-out: IC50 THP1 microsome
EXPERIMENTAL READOUT: pIC50
Lab note — pIC50 values are minus log10 of concentrations in M.

Q: Enter reported pIC50 observed with THP-1 microsomal ACAT (Homo sapiens) for `CCCCNC(=O)Nc1ccc(SC)cc1C(=O)NCC1CCN(C(c2ccccc2)c2ccccc2)CC1`
Result: 7.70

Q: And then CCCCNC(=O)Nc1ccc([S+](C)[O-])cc1C(=O)NCC1CCN(C(c2ccccc2)c2ccccc2)CC1 (stereo not shown) , what is it?
Result: 7.00

Q: And then `COCCCNC(=O)Nc1ccc(N2CCOCC2)cc1C(=O)NCC1CCN(C(c2ccccc2)c2ccccc2)CC1` , what is it?
Result: 7.00

Q: And then `CCCCNC(=O)Nc1ccc(N2CCCC2)cc1C(=O)NCC1CCN(C(c2ccccc2)c2ccccc2)CC1` , what is it?
Result: 7.22

Q: And then `CCCCNC(=O)Nc1ccc(N(C)C)cc1C(=O)NCC1CCN(C(c2ccccc2)c2ccccc2)CC1` , what is it?
Result: 7.30

Q: And then `CCCCCCCNC(=O)Nc1ccc(N2CCCCC2)cc1C(=O)NCC1CCN(C(c2ccccc2)c2ccccc2)CC1` , what is it?
Result: 6.57

Q: And then `CCCCCCCNC(=O)Nc1ccc(C(C)C)cc1C(=O)NCC1CCN(C(c2ccccc2)c2ccccc2)CC1` , what is it?
Result: 6.66

Q: And then `CCCCCCCNC(=O)Nc1ccc(N(C)C)cc1C(=O)NCC1CCN(C(c2ccc(F)cc2)c2ccc(F)cc2)CC1` , what is it?
Result: 7.40

Q: And then `COCCCNC(=O)Nc1ccc(N(C)C)cc1C(=O)NCC1CCN(C(c2ccccc2)c2ccccc2)CC1` , what is it?
Result: 7.05

Q: And then `CCCCNC(=O)Nc1ccc(N(CC)CC)cc1C(=O)NCC1CCN(C(c2ccccc2)c2ccccc2)CC1` , what is it?
Result: 7.52

Q: And then `CCCCNC(=O)Nc1ccc(-n2ccnc2)cc1C(=O)NCC1CCN(C(c2ccccc2)c2ccccc2)CC1` , what is it?
Result: 6.70

Q: And then `O=C(NCC1CC1)Nc1ccc(N2CCOCC2)cc1C(=O)NCC1CCN(C(c2ccccc2)c2ccccc2)CC1` , what is it?
Result: 7.00

Q: And then `CCCCCCCNC(=O)Nc1ccc(N(C)C)cc1C(=O)NCC1CCN(Cc2ccccc2-c2ccccc2)CC1` , what is it?
Result: 7.10
